Overview of reported T/C % (Treatment/Control %) across a group of molecules:
test system: P-388 cells; test: Antineoplastic action against implanted P-388 cells (ip-ip), survival T/C; assay type: in vivo, CDFl mice; settings: Table 6, P388, intraperitoneal, dose 0.5 mg/kg
Value expressed in %; do not type the unit.

# molecule, measuredMetric, testValue
records = [
    ("COc1ccc(C[C@H]2C(=O)N[C@@H](C)C(=O)N(C)[C@H]3Cc4ccc(cc4)Oc4cc(ccc4OC)C[C@@H](C(=O)N[C@H](C)C(=O)N[C@@H](C)C(=O)N2C)N(C)C3=O)cc1", "T/C % (Treatment/Control %)", 156.7),
    ("COc1ccc(CC2C(=O)NC(C)C(=O)N(C)C3Cc4ccc(cc4)Oc4cc(ccc4OC(C)C)CC(C(=O)NC(C)C(=O)NC(C)C(=O)N2C)N(C)C3=O)cc1 (centres unmarked)", "T/C % (Treatment/Control %)", 175.1),
    ("CCOc1ccc2cc1Oc1ccc(cc1)CC1C(=O)N(C)C(C2)C(=O)NC(C)C(=O)NC(C)C(=O)N(C)C(Cc2ccc(OC)cc2)C(=O)NC(C)C(=O)N1C (centres unmarked)", "T/C % (Treatment/Control %)", 165.4),
]

Prompt: Report T/C % (Treatment/Control %) on P-388 cells for this entry: CCC(=O)Oc1ccc2cc1Oc1ccc(cc1)CC1C(=O)N(C)C(C2)C(=O)NC(C)C(=O)NC(C)C(=O)N(C)C(Cc2ccc(OC)cc2)C(=O)NC(C)C(=O)N1C (centres unmarked)
Response: 145.3

Prompt: Report T/C % (Treatment/Control %) on P-388 cells for this entry: CCCC=CC(=O)Oc1ccc2cc1Oc1ccc(cc1)CC1C(=O)N(C)C(C2)C(=O)NC(C)C(=O)NC(C)C(=O)N(C)C(Cc2ccc(OC)cc2)C(=O)NC(C)C(=O)N1C (centres unmarked)
Response: 150.1

Prompt: Report T/C % (Treatment/Control %) on P-388 cells for this entry: CCCCCCCOc1ccc2cc1Oc1ccc(cc1)CC1C(=O)N(C)C(C2)C(=O)NC(C)C(=O)NC(C)C(=O)N(C)C(Cc2ccc(OC)cc2)C(=O)NC(C)C(=O)N1C (centres unmarked)
Response: 144.7

Prompt: Report T/C % (Treatment/Control %) on P-388 cells for this entry: CCCCCCCCCOc1ccc2cc1Oc1ccc(cc1)CC1C(=O)N(C)C(C2)C(=O)NC(C)C(=O)NC(C)C(=O)N(C)C(Cc2ccc(OC)cc2)C(=O)NC(C)C(=O)N1C (centres unmarked)
Response: 141.5

Prompt: Report T/C % (Treatment/Control %) on P-388 cells for this entry: CCCCCOc1ccc2cc1Oc1ccc(cc1)CC1C(=O)N(C)C(C2)C(=O)NC(C)C(=O)NC(C)C(=O)N(C)C(Cc2ccc(OC)cc2)C(=O)NC(C)C(=O)N1C (centres unmarked)
Response: 142.7

Prompt: Report T/C % (Treatment/Control %) on P-388 cells for this entry: CCCCC(=O)Oc1ccc2cc1Oc1ccc(cc1)CC1C(=O)N(C)C(C2)C(=O)NC(C)C(=O)NC(C)C(=O)N(C)C(Cc2ccc(OC)cc2)C(=O)NC(C)C(=O)N1C (centres unmarked)
Response: 149.5

Prompt: Report T/C % (Treatment/Control %) on P-388 cells for this entry: CC=CC(=O)Oc1ccc2cc1Oc1ccc(cc1)CC1C(=O)N(C)C(C2)C(=O)NC(C)C(=O)NC(C)C(=O)N(C)C(Cc2ccc(OC)cc2)C(=O)NC(C)C(=O)N1C (centres unmarked)
Response: 148.5

Prompt: Report T/C % (Treatment/Control %) on P-388 cells for this entry: COc1ccc(CC2C(=O)NC(C)C(=O)N(C)C3Cc4ccc(cc4)Oc4cc(ccc4OC(=O)CCC(C)C)CC(C(=O)NC(C)C(=O)NC(C)C(=O)N2C)N(C)C3=O)cc1 (centres unmarked) [Ex. 40, 4-methyl valerate]
Response: 133.9
